FYI, the data here is from PubChem BioAssay (NCI).

test system: SW-620 colon; test: NCI-60 one-dose screen, 48 h; conditions: 10 µM unless noted
The panel holds about 83,000 compounds, 20% with a hit somewhere; the sample as a whole holds those more often. The source made the active and inactive calls. Rule for the calls: active = growth percent below 10; inactive = the rest.
Labels: active, inactive

{"compound": "COC(CCCl)c1ccc(Cl)cc1 (stereo not drawn)", "category": "inactive"}
{"compound": "CCCCn1cnc2c(=O)[nH]cnc21", "category": "inactive"}
{"compound": "Cc1c(Cl)cccc1NC(=S)NC(=O)c1ccccc1", "category": "inactive"}
{"compound": "Cn1c(=O)c2nc3c(=O)n(C)c(=O)n(C)c3nc2n(C)c1=O", "category": "inactive"}
{"compound": "CCOC(=O)c1c[nH][nH]c1=O", "category": "inactive"}
{"compound": "Cc1onc(-c2ccccc2Cl)c1C(=O)Cl", "category": "inactive"}
{"compound": "O=C(NCc1ccccc1)/C(=C/c1ccccc1)NC(=O)c1ccccc1", "category": "inactive"}
{"compound": "O=C(OCC1CCCO1)c1ccc([N+](=O)[O-])cc1 (stereo not drawn)", "category": "inactive"}
{"compound": "Cc1ccc(S(=O)(=O)NC(=O)NCCSSCCNC(=O)NS(=O)(=O)c2ccc(C)cc2)cc1", "category": "inactive"}
{"compound": "C=CCc1cc(OC)c(O)c(OC)c1", "category": "inactive"}
{"compound": "C=C1CC2(OC1=O)C(=O)N(C)c1ccc(I)cc12 (stereo not drawn)", "category": "active"}
{"compound": "CCCC(=O)c1cccs1", "category": "inactive"}
{"compound": "COC(c1ccc2c(c1)OCO2)C(C)Br (stereo not drawn)", "category": "inactive"}
{"compound": "CCOC(=O)CNC(=O)Sc1ccc(C(C)(C)C)cc1", "category": "inactive"}
{"compound": "O=C(O)c1cc(I)ccc1O", "category": "inactive"}
{"compound": "CCOC(=O)CSCCC#N", "category": "inactive"}
{"compound": "CS(=O)(=O)c1ccc(/C=C\\C(=O)O)cc1", "category": "inactive"}
{"compound": "O=C1CSc2ccccc2N1", "category": "inactive"}
{"compound": "C1CCc2onc(-c3noc4c3CCCCC4)c2CC1", "category": "inactive"}
{"compound": "CC1=CC(=Nc2ccc(N(C)C)cc2)C=C(C)C1=O", "category": "inactive"}
{"compound": "Oc1cccc(CNC2CCCCC2)c1", "category": "inactive"}
{"compound": "c1ccc(Oc2c3ccccc3nc3ccccc23)cc1", "category": "inactive"}
{"compound": "CN1CCCN(C(c2ccccc2)c2ccc(Br)cc2)CC1 (stereo not drawn)", "category": "inactive"}
{"compound": "C=CC(=O)OC1CCC(C(C)(C)CC)CC1 (stereo not drawn)", "category": "inactive"}
{"compound": "COc1cc(OC)c2cc(C(=O)c3ccc(C#N)cc3)c(=O)oc2c1", "category": "inactive"}
{"compound": "CCNC(=O)Oc1ccc[nH]c1=O", "category": "inactive"}
{"compound": "Nc1ccc(F)cc1F", "category": "inactive"}
{"compound": "c1ccc2c(NCCCN3CCN(CCCNc4c5ccccc5nc5ccccc45)CC3)c3ccccc3nc2c1", "category": "active"}
{"compound": "O=C(CCl)Nc1ccccc1SCc1cc(Cl)cc2c1OCOC2", "category": "inactive"}
{"compound": "NC(=O)NCCO", "category": "inactive"}
{"compound": "O=Cc1ccc(O)c(O)c1", "category": "inactive"}
{"compound": "C/C(=N\\Nc1ccc([N+](=O)[O-])cc1[N+](=O)[O-])c1ccc(Br)cc1", "category": "inactive"}
{"compound": "O=S(=O)(O)c1ccc(O)c(C2CCCCC2)c1", "category": "inactive"}
{"compound": "O=c1[nH]c(=O)c2cc(Cl)cc(Cl)c2[nH]1", "category": "inactive"}
{"compound": "CCC(/C=C\\C(C)=O)CC", "category": "inactive"}
{"compound": "CCC(C)C1CCC(O)CC1 (stereo not drawn)", "category": "inactive"}
{"compound": "C[C@H](CCC[C@H](C)OS(=O)(=O)c1ccccc1)OS(=O)(=O)c1ccccc1", "category": "inactive"}
{"compound": "COc1c(CNC(=O)CCl)cc2[nH]c(C)cc2c1CNC(=O)CCl", "category": "inactive"}
{"compound": "CCOC(=N)CC(=O)Nc1cccc(C)c1Cl", "category": "inactive"}
{"compound": "S=C(NCc1ccccc1)N1CCC(CCCC2CCN(C(=S)NCc3ccccc3)CC2)CC1", "category": "inactive"}
{"compound": "Cc1cc(C)cc(OCC(=O)O)c1", "category": "inactive"}
{"compound": "O=CNCCc1ccccc1", "category": "inactive"}
{"compound": "O=C(c1ccccc1O)N1CCCC1", "category": "inactive"}
{"compound": "O=C(N/N=C\\c1ccc(Cl)cc1Cl)c1ccncc1", "category": "inactive"}
{"compound": "COC1CC(OC(=O)c2ccc([N+](=O)[O-])cc2)C(COC(=O)c2ccc([N+](=O)[O-])cc2)O1 (stereo not drawn)", "category": "inactive"}
{"compound": "CCOC(=O)c1cc(C)[nH]c(=O)c1C#N", "category": "inactive"}
{"compound": "N=C(N)c1nn(C2OC(CO)C(O)C2O)c2nc[nH]c(=O)c12 (stereo not drawn)", "category": "active"}
{"compound": "Cc1cc(Nc2ccc3c(c2)OCO3)c2cc3c(cc2n1)OCO3", "category": "inactive"}
{"compound": "C/C(O)=C(/C=N\\C(=S)Nc1ccc(S(=O)(=O)Nc2nccs2)cc1)C(=O)Nc1ccccc1C", "category": "inactive"}
{"compound": "CC(C)Sc1ncnc2nc[nH]c12", "category": "inactive"}
{"compound": "CCNc1ccc2ccccc2c1N=Nc1ccc(N=Nc2ccccc2)cc1", "category": "inactive"}
{"compound": "CC1CN(CCO)CC(C)O1 (stereo not drawn)", "category": "inactive"}
{"compound": "CNc1ccccc1C(=O)N/N=C/C=C/c1ccccc1", "category": "inactive"}
